Here, each record is paired with measured log10(Ki) data.
- system-name: T1, human plasma Kallikrein (human, UniProt P03952 20-638, limits assumed)
- T1 construct: also called hPK; human PK
- T1 sequence (P03952 20-638 limits assumed): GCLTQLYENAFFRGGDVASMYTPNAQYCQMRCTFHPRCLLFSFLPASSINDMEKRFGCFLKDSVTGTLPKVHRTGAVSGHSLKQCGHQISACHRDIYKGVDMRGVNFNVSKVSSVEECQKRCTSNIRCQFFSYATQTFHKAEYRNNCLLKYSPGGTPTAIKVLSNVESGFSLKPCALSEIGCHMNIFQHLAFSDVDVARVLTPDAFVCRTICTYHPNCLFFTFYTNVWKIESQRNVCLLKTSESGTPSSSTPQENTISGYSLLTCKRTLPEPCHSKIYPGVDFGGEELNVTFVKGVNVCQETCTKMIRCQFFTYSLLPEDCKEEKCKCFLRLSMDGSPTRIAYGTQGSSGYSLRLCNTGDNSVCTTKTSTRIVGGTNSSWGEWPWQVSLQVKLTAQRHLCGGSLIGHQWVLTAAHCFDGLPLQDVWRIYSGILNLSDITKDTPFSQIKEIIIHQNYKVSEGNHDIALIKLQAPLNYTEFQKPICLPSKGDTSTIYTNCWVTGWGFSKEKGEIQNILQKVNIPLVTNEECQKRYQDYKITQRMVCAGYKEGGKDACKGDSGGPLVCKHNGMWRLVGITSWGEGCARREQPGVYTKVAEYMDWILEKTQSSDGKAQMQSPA
- test-name: enzyme inhibition assay
Numbered stars: 1 amine (or outer) side, 2 acyl side, 3 side chain; on linkers, the order of the positions; unused ones are H or OH. Bridge positions count the residues as written; N and C are the ends. Square brackets hold non-standard residues; d marks the D form. Phe(4-guanidino) = N=C(N)Nc1ccc(C[C@H](N)C(=O)O)cc1; TBMB = c1c(C[*:1])cc(C[*:3])cc1C[*:2]; NMeR = CN[C@@H](CCCNC(=N)N)C(=O)O; hArg = N=C(N)NCCCC[C@H](N)C(=O)O; Aze = O=C(O)[C@@H]1CCN1
Response schema: value (number) is log10 of Ki in units of nM.

1. Ac-CSFPY[NMeR]CLHQDLC-NH2 (linker 1-7-13 via TBMB; SMILES CC(=O)N[C@H]1CSCc2cc3cc(c2)CSC[C@H](NC(=O)[C@H](CCCNC(=N)N)N(C)C(=O)[C@H](Cc2ccc(O)cc2)NC(=O)[C@@H]2CCCN2C(=O)[C@H](Cc2ccccc2)NC(=O)[C@H](CO)NC1=O)C(=O)N[C@@H](CC(C)C)C(=O)N[C@@H](Cc1c[nH]cn1)C(=O)N[C@@H](CCC(N)=O)C(=O)N[C@@H](CC(=O)O)C(=O)N[C@@H](CC(C)C)C(=O)N[C@H](C(N)=O)CSC3) [Ac-(06-34-18) Phe2 Tyr4 NMeArg5] ... 0.55
2. Ac-CSFPY[Phe(4-guanidino)]CLHQDLC-NH2 (linker 1-7-13 via TBMB; SMILES CC(=O)N[C@H]1CSCc2cc3cc(c2)CSC[C@H](NC(=O)[C@H](Cc2ccc(NC(=N)N)cc2)NC(=O)[C@H](Cc2ccc(O)cc2)NC(=O)[C@@H]2CCCN2C(=O)[C@H](Cc2ccccc2)NC(=O)[C@H](CO)NC1=O)C(=O)N[C@@H](CC(C)C)C(=O)N[C@@H](Cc1c[nH]cn1)C(=O)N[C@@H](CCC(N)=O)C(=O)N[C@@H](CC(=O)O)C(=O)N[C@@H](CC(C)C)C(=O)N[C@H](C(N)=O)CSC3) [Ac-(06-34-18) Phe2 Tyr4 4GuanPhe5] ... -0.40
3. Ac-CSFPY[hArg]CLHQDLC-NH2 (linker 1-7-13 via TBMB; SMILES CC(=O)N[C@H]1CSCc2cc3cc(c2)CSC[C@H](NC(=O)[C@H](CCCCNC(=N)N)NC(=O)[C@H](Cc2ccc(O)cc2)NC(=O)[C@@H]2CCCN2C(=O)[C@H](Cc2ccccc2)NC(=O)[C@H](CO)NC1=O)C(=O)N[C@@H](CC(C)C)C(=O)N[C@@H](Cc1c[nH]cn1)C(=O)N[C@@H](CCC(N)=O)C(=O)N[C@@H](CC(=O)O)C(=O)N[C@@H](CC(C)C)C(=O)N[C@H](C(N)=O)CSC3) [Ac-(06-34-18) Phe2 Tyr4 HomoArg5] ... -0.11
4. Ac-CSF[Aze]Y[hArg]CLHQDLC-NH2 (linker 1-7-13 via TBMB) [Ac-(06-34-18) Phe2 Aze3 Tyr4 HomoArg5] ... -0.92
5. Ac-CSF[Aze]Y[NMeR]CLHQDLC-NH2 (linker 1-7-13 via TBMB; SMILES CC(=O)N[C@H]1CSCc2cc3cc(c2)CSC[C@H](NC(=O)[C@H](CCCNC(=N)N)N(C)C(=O)[C@H](Cc2ccc(O)cc2)NC(=O)[C@@H]2CCN2C(=O)[C@H](Cc2ccccc2)NC(=O)[C@H](CO)NC1=O)C(=O)N[C@@H](CC(C)C)C(=O)N[C@@H](Cc1c[nH]cn1)C(=O)N[C@@H](CCC(N)=O)C(=O)N[C@@H](CC(=O)O)C(=O)N[C@@H](CC(C)C)C(=O)N[C@H](C(N)=O)CSC3) [Ac-(06-34-18) Phe2 Aze3Tyr4 NMeArg5] ... -0.01

## Task What value of measured log10(Ki) is listed for Ac-CSF[Aze]Y[Phe(4-guanidino)]CLHQDLC-NH2 (linker 1-7-13 via TBMB) [Ac-(06-34-18) Phe2 Aze3Tyr4 4GuanPhe5] ?
## Result -0.44

## Task What value of measured log10(Ki) is listed for Ac-CSFPYRCLHQDLC-NH2 (linker 1-7-13 via TBMB; SMILES CC(=O)N[C@H]1CSCc2cc3cc(c2)CSC[C@H](NC(=O)[C@H](CCCNC(=N)N)NC(=O)[C@H](Cc2ccc(O)cc2)NC(=O)[C@@H]2CCCN2C(=O)[C@H](Cc2ccccc2)NC(=O)[C@H](CO)NC1=O)C(=O)N[C@@H](CC(C)C)C(=O)N[C@@H](Cc1c[nH]cn1)C(=O)N[C@@H](CCC(N)=O)C(=O)N[C@@H](CC(=O)O)C(=O)N[C@@H](CC(C)C)C(=O)N[C@H](C(N)=O)CSC3, also called Ac-(06-34-18) FPYR; Ac-(06-34-18) Phe2 Tyr4) [Ac-06-34-18(TMB)-NH2 Phe2Tyr4] ?
## Result -0.34
